Target: T1, Kap104p, P38217
T1 chain: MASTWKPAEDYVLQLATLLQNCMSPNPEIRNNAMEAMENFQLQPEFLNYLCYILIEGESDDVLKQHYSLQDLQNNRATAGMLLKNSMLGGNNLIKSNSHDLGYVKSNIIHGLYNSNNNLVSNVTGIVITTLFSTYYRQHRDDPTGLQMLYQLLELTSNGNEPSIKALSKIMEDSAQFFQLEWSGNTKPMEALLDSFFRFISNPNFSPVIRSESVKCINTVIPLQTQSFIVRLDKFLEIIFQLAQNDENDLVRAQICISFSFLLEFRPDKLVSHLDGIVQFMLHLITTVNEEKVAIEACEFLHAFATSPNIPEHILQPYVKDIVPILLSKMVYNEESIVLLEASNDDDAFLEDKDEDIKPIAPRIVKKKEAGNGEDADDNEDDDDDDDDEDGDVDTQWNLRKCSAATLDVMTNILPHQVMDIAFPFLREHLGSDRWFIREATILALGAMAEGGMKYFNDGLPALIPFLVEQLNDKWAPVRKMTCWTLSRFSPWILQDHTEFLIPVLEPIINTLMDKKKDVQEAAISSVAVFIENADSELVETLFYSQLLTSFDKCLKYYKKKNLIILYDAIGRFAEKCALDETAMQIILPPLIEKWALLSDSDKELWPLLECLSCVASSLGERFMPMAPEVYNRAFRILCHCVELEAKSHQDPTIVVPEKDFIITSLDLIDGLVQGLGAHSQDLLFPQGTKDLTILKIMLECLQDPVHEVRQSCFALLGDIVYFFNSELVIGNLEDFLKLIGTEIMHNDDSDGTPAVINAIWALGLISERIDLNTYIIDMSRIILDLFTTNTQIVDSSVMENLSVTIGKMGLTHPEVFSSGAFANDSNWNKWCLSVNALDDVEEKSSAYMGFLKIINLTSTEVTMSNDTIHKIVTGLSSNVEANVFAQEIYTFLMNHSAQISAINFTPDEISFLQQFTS
Experiment: ITC
Settings: chain shown with the change;; parent: -10.1 ± 0.3
MEASURE_NAME: dG (kcal/mol)
# number only, unit kcal/mol dropped from output

In the examples that follow, each entry is paired with its recorded dG.
BINDER | MEASURE_NAME | NUMERIC_VALUE
RDRNDRDRDYNHRSGGNHAAAARGGRGGYNRRNNGYHPYNR (domain or fragment, S. cerevisiae, UniProt Q99383 494-534, looked up, Hrp1p NLS, residues 494-534; source: E. coli BL21(DE3), purified (amylose resin, cation exchange)) [MBP–Hrp1p NLS 512RRNG515/AAAA] | dG | -9.8
RDRNDRDRDYNHAAAANHRRNGRGGRGGYNRRNNGYHPYNR (domain or fragment, S. cerevisiae, UniProt Q99383 494-534, looked up, Hrp1p NLS, residues 494-534; source: E. coli BL21(DE3), purified (amylose resin, cation exchange)) [MBP–Hrp1p NLS 506RSGG509/AAAA] | dG | -10
RDRNDRDRDYNHRSGGNHRRNGAAARGGYNRRNNGYHPYNR (domain or fragment, S. cerevisiae, UniProt Q99383 494-534, looked up, Hrp1p NLS, residues 494-534; source: E. coli BL21(DE3), purified (amylose resin, cation exchange)) [MBP–Hrp1p NLS 516RGG518/AAA] | dG | -10.3

Now consider a different binder.
stdin: What does the data say about its dG? Entry: RDRNDRDRDYNHRSGGNHRRNGRGGAAAAARRNNGYHPYNR (domain or fragment, S. cerevisiae, UniProt Q99383 494-534, looked up, Hrp1p NLS, residues 494-534; source: E. coli BL21(DE3), purified (amylose resin, cation exchange)) [MBP–Hrp1p NLS 519RGGYN523/AAAAA]
stdout: -10.4
